molecular target: SARS-CoV-2 3CL^pro (Severe acute respiratory syndrome coronavirus 2); experiment: biochemical; assay type: biochemical; conditions: FRET assay; read-out: SARS-CoV-2 3CL^pro Inhibition IC50
Measurement Type: pIC50
Formally, pIC50 is defined as -log10 of the concentration c, with c in mol/L.

{"Structure As Smiles": "COc1cc(OC(=O)c2cc(O)c(O)c(O)c2)cc(O)c1C(=O)/C=C/c1ccccc1", "Measurement Type": "pIC50", "Endpoint Value": 4.87}

pIC50 measured on `COc1cc(OC(=O)c2cc(O)c(O)c(O)c2)c2c(c1)O[C@H](c1ccccc1)CC2=O` = 5.13
